System: SN12C renal
Assay: NCI-60 one-dose screen, 48 h
Settings: 10 µM unless noted
Compounds without any hit were thinned out: in the full panel of roughly 83,000, 20% have a hit. The source made the active and inactive calls. How the source made its calls: active means growth percent below 10; inactive means the rest.
Outcomes: active, inactive

- MOLECULE: "COP(=S)(N1CC1)N1CC1"
  ASSAY_TARGET: "SN12C renal"
  GROUP_LABEL: "inactive"
- MOLECULE: "C/C(CC(C)(C)N1CC1)=N\\NC(=O)Nc1cccc2ccccc12"
  ASSAY_TARGET: "SN12C renal"
  GROUP_LABEL: "inactive"
- MOLECULE: "CC(=O)OCC1O[C@@H]([S-])C(OC(C)=O)[C@H](OC(C)=O)[C@@H]1OC(C)=O.[Au+].c1ccc(CN2[CH-]N(Cc3ccccc3)C(c3ccccc3)=C2c2ccccc2)cc1"
  ASSAY_TARGET: "SN12C renal"
  GROUP_LABEL: "inactive"
- MOLECULE: "CC(=O)OC[C@]1(C)C=C2C(=O)[C@](C)(O)C3(CC3)C(C)=C2[C@H]1O"
  ASSAY_TARGET: "SN12C renal"
  GROUP_LABEL: "active"
- MOLECULE: "Clc1ccc(CSC(Cn2ccnc2)c2ccc(Cl)cc2Cl)cc1 (stereo not given)"
  ASSAY_TARGET: "SN12C renal"
  GROUP_LABEL: "inactive"

====

System: HOP-62 NSCLC
Test: NCI-60 one-dose screen, 48 h (100 = growth as untreated, 0 = no growth, -100 = all killed)
Details: 10 µM unless noted
Compounds without any hit were thinned out: in the full panel of roughly 83,000, 20% have a hit. Calls of active or inactive are those of the source. Rule for the calls: active = growth percent below 10; inactive = the rest.
METRIC_NAME: growth

- COMPOUND: "COC(=O)[C@@H](C)C[C@H](Cc1ccccc1)NC(=O)c1csc([C@@H](C[C@H](C(C)C)N(C)C(=O)[C@@H](NC(=O)[C@H]2CCCCN2C)C(C)C)OC(C)=O)n1"
  ASSAY_TARGET: "HOP-62 NSCLC"
  OBS_VALUE: "0.881% (active)"
- COMPOUND: "c1cc2c(c3c1CCNC3)OCO2"
  ASSAY_TARGET: "HOP-62 NSCLC"
  OBS_VALUE: "96.6% (inactive)"
- COMPOUND: "CNC(=O)Oc1ccc(C(C)(C)C)cc1OC(=O)NC"
  ASSAY_TARGET: "HOP-62 NSCLC"
  OBS_VALUE: "88.7% (inactive)"
- COMPOUND: "COP(=O)(OC)C(O)c1ccc(Cl)cc1 (stereo not drawn)"
  ASSAY_TARGET: "HOP-62 NSCLC"
  OBS_VALUE: "104% (inactive)"
- COMPOUND: "CCOP(=O)(Nc1ccc2c(c1)/C(=N/NC(N)=S)c1ccccc1-2)OCC"
  ASSAY_TARGET: "HOP-62 NSCLC"
  OBS_VALUE: "117% (inactive)"
- COMPOUND: "Cc1cc(N(CCCl)CCCl)ccc1/C=N\\NC(=O)c1ccncc1"
  ASSAY_TARGET: "HOP-62 NSCLC"
  OBS_VALUE: "79.4% (inactive)"
- COMPOUND: "Nc1ccc2c(c1)oc1ccccc12"
  ASSAY_TARGET: "HOP-62 NSCLC"
  OBS_VALUE: "103% (inactive)"
- COMPOUND: "CC(C)CCC(=O)O[C@H]1CC[C@H]2[C@@H]3CCC4=CC(=O)CC[C@]4(C)[C@H]3CC[C@]12C"
  ASSAY_TARGET: "HOP-62 NSCLC"
  OBS_VALUE: "102% (inactive)"
- COMPOUND: "Nc1ccc(Cl)cc1"
  ASSAY_TARGET: "HOP-62 NSCLC"
  OBS_VALUE: "90.3% (inactive)"
- COMPOUND: "CC1(C)N=C(N)N=C(N)N1c1cccc(CCCCc2ccc(Cl)c(S(=O)(=O)F)c2)c1"
  ASSAY_TARGET: "HOP-62 NSCLC"
  OBS_VALUE: "33.6% (inactive)"
- COMPOUND: "C[Se]C(=O)c1ccccc1OC(C)=O"
  ASSAY_TARGET: "HOP-62 NSCLC"
  OBS_VALUE: "48.9% (inactive)"
- COMPOUND: "Nc1cc2nc3ccccc3nc2cc1N"
  ASSAY_TARGET: "HOP-62 NSCLC"
  OBS_VALUE: "80.4% (inactive)"
- COMPOUND: "Clc1ccc2nnnn2n1"
  ASSAY_TARGET: "HOP-62 NSCLC"
  OBS_VALUE: "55.7% (inactive)"
- COMPOUND: "Cc1c(NS(=O)(=O)c2ccccc2)ccc([N+](=O)[O-])c1Cl"
  ASSAY_TARGET: "HOP-62 NSCLC"
  OBS_VALUE: "95.1% (inactive)"
- COMPOUND: "Clc1cccc(N2COOC3(OOC2)C2CC4CC(C2)CC3C4)c1"
  ASSAY_TARGET: "HOP-62 NSCLC"
  OBS_VALUE: "73% (inactive)"
- COMPOUND: "CC(=O)O[C@H]1CC[C@H]2[C@@H]3CC=C4c5nc(-c6ccccc6)sc5CC[C@]4(C)[C@H]3CC[C@]12C"
  ASSAY_TARGET: "HOP-62 NSCLC"
  OBS_VALUE: "72.1% (inactive)"
- COMPOUND: "CC1(C)N=C(N)N=C(N)N1c1ccc(CCC(=O)Nc2ccc(S(=O)(=O)F)cc2)c(Cl)c1"
  ASSAY_TARGET: "HOP-62 NSCLC"
  OBS_VALUE: "19.9% (inactive)"
- COMPOUND: "COC(=O)[C@@H](C)C[C@H](Cc1ccccc1)NC(=O)c1csc([C@@H](C[C@H](C(C)C)N(C)C(=O)[C@@H](NC(=O)[C@H]2CCCCN2C)C2CC2)OC(C)=O)n1"
  ASSAY_TARGET: "HOP-62 NSCLC"
  OBS_VALUE: "15.7% (inactive)"
- COMPOUND: "CCCCC1(CCC)C(=O)NC(=S)NC1=O"
  ASSAY_TARGET: "HOP-62 NSCLC"
  OBS_VALUE: "99.6% (inactive)"
- COMPOUND: "CC(C)(C)C(=O)OCOP(=O)(NCc1ccccc1)C1CCCN(O)C1=O (stereo not drawn)"
  ASSAY_TARGET: "HOP-62 NSCLC"
  OBS_VALUE: "23.4% (inactive)"
- COMPOUND: "CCn1nccc1NC(=O)C(=O)c1cn(Cc2ccc(F)cc2)c2cccc(OC)c12"
  ASSAY_TARGET: "HOP-62 NSCLC"
  OBS_VALUE: "75.9% (inactive)"
- COMPOUND: "Brc1ccc2c(c1)c(-c1nc(-c3c[nH]c4ncccc34)cs1)cn2CCN1CCOCC1"
  ASSAY_TARGET: "HOP-62 NSCLC"
  OBS_VALUE: "60.4% (inactive)"
- COMPOUND: "CCCCOc1ccc(C(N)Cc2ccccc2)cc1 (stereo not drawn)"
  ASSAY_TARGET: "HOP-62 NSCLC"
  OBS_VALUE: "107% (inactive)"
- COMPOUND: "CC12CCC3C(CCC4=CC(=O)CCC43CF)C1CCC2=O (stereo not drawn)"
  ASSAY_TARGET: "HOP-62 NSCLC"
  OBS_VALUE: "124% (inactive)"
- COMPOUND: "CCCC(=O)O[C@@H]1C[C@H]2C[C@@H](O[C@@H]3O[C@@H](C)[C@@H](O)[C@@H](O)[C@H]3OC)C[C@@H](C[C@@H](C)/C=C/C=C\\C[C@@H]3O[C@@H](C[C@@H]3C)[C@@H](O)C[C@H]3C[C@@]1(O)C(=O)O3)O2"
  ASSAY_TARGET: "HOP-62 NSCLC"
  OBS_VALUE: "64.8% (inactive)"
- COMPOUND: "COC(=O)[C@H](Cc1c[nH]c2ccccc12)NC(=O)[C@@H](OC)[C@@H]1Cc2cc3cc(OC4CC(OC5CC(O)C(O)C(C)O5)C(O)C(C)O4)c(C)c(O)c3c(O)c2C(=O)[C@H]1OC1CC(OC2CC(OC3CC(C)(O)C(O)C(C)O3)C(O)C(C)O2)C(O)C(C)O1 (stereo partly drawn)"
  ASSAY_TARGET: "HOP-62 NSCLC"
  OBS_VALUE: "9.74% (active)"
- COMPOUND: "CC(=O)/C=C/c1ccc2c(c1)OCO2"
  ASSAY_TARGET: "HOP-62 NSCLC"
  OBS_VALUE: "102% (inactive)"
- COMPOUND: "C[C@]12C[C@@H](CO)[C@H](O)C[C@@H]1CC[C@@H]1[C@@H]2CC[C@]2(C)[C@@H](O)CC[C@@H]12"
  ASSAY_TARGET: "HOP-62 NSCLC"
  OBS_VALUE: "107% (inactive)"
